Please respond with reported IHC Intensity for every item in the list.
Biological target: T1, Human MAGEB2 (Melanoma-associated antigen B2) (human, UniProt O15479 1-319)
T1 construct: Intracellular antigen detected by IHC in FFPE material: CHO cells transfected with human MAGEB2 (mCherry vector with Myc/DDK tags, or ORF without tags)
T1 sequence: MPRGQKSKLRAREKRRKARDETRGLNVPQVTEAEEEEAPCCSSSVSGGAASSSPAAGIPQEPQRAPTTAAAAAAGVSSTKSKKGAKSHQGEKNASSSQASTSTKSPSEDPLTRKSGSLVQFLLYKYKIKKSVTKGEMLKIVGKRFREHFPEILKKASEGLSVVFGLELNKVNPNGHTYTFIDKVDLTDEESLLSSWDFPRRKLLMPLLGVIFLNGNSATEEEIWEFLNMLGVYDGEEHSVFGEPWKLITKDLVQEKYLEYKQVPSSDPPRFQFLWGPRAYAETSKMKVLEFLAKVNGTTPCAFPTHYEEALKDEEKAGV
Experiment: IHC on FFPE T98G cells (endogenous MAGEB2)
A bare number is all that is needed in reply.

Problem: Item under review: 1I14 (antibody, V domains shown, also called MAGE-B2 (1i14)) VH: QSVEESGGRLVTPGTPLTLTCTISGFSLSSYAMSWVRQAPGKGLEWIGSIGGGGSAVYASWAKGRFTISKTSTTVDLRITSPTTEDTAMYFCGRGFYSIDLWGPGTLVTVSS VL: DVVMTQTPASVEATVGGTVTIKCQSSQSVYDNNALAWYQQNAGQRPRLLIYGASTLASGVPSRFSASGSGTEFTLTISDLECADAATYYCQCTYYVSSYQNDFGGGTEVVVKG . Reported IHC Intensity?
Result: 2

Problem: Do the same for 1J15 (antibody, IgG1, V domains shown, Rabbit monoclonal IgG1; Tested as supernatant and as small batch purified antibody; also called MAGE-B2 (IJ15); anti-MAGEB2 antibody 1J15) VH: QSLEESGGGLVQPEGSLTLTCTAFGFTLNNYYICWVRQAPGKGLEWIACIDNANGRTYYASWAKGRFTISKTSSTTVTLQMTSLTAADTATYFCARSLSTPLWGPGTLVTVSS VL: DIVMTQTPASVEAAVGGTVTIKCQASQSISSYLSWYQQKPGQPPKLLIYRASTLASGVPSRFRGSGSGTQFTLTISDLECADAATYYCQSYDDSSDNNFFYGFGGGTEVVVR please
Result: 1

Problem: And what about the binder 4G17 (antibody, IgG1, V domains shown, Rabbit monoclonal IgG1; Tested as supernatant and as small batch purified antibody; also called MAGE-B2 (4G17); anti-MAGEB2 antibody 4G17) VH: QSLEESGGGLVQPEGSLTLTCTASGVTLSNYYICWVRQAPGKGLEWIGCIDNVNGRTYYASWAKGRFTISKTSSTTGTLQMTSLTAADTATYFCARSLATPLWGPGTLVTVSS VL: DIVMTQTPASVEAAVGGTVTIKCQASQNIDSYLAWYQQKPGQPPKLLIYRASTLASGVPSRFKGSGSGTEFTLTISDLECADAATYYCQSYDDSRSSSFFYGFGGGTEVVVK ?
Result: 2

Problem: Same question for 1C3 (antibody, V domains shown, also called MAGE-B2 (IC3); anti-MAGEB2 antibody 1C3) VH: QSLEESGGGLVQPEGSLTLTCTAFGVTLTNYYICWVRQAPGKGLEWVGCIDNANGRTYYASWAKGRFTISKTSSTTGTLQMTSLTAADTATYFCARSLATPLWGPGTLVTVSS VL: DIVMTQTPSSVEAAVGGTVTIKCQASQNISSYLAWYQQKPGQPPKLLIYRASTLASGVPSRFKGSGSGTQFTLTISDLECADAATYYCQSYDDSRSSNFFYAFGGGTEVVVKG please.
Result: 2
